# Tested Target: UniProt:P35408
# Method: cAMP assay in human EP4 transfectant
# Particulars: HEK293 cells expressing human EP4 receptors, 1 nM PGE2, 0.2 mM IBMX, 37° C. for 10 min
Endpoint: IC50 (nM)

(a) C[C@H](NC(=O)c1cc(Cl)cnc1COc1cccc(Cl)c1)c1ccc(C(=O)O)cc1
(b) C[C@H](NC(=O)c1cc(Cl)ccc1CN(C)c1ccc(F)cn1)c1ccc(C(=O)O)cc1
Ask: Endpoint returns whichever of a and b has the numerically higher IC50. Give the label of your selection.
Reply: b
(b: 230 nM, a: 17 nM)

###

# Tested Target: human EP4 receptors (Homo sapiens, UniProt P35408)
# Construct: expressed in transfected cells
# Sequence (P35408 whole entry): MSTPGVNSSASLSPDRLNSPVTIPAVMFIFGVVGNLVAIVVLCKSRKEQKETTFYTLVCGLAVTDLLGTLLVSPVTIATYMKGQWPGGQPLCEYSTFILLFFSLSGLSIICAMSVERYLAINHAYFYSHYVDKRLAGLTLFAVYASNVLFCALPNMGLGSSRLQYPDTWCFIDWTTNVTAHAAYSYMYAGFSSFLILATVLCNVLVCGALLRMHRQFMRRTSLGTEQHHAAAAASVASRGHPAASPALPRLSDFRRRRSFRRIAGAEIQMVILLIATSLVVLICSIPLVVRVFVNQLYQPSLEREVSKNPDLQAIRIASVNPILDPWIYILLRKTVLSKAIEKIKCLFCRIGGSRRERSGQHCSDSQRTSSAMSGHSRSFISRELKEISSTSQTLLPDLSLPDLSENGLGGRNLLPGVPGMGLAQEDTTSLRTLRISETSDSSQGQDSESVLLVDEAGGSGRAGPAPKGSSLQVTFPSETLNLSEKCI
# Method: cAMP assay in human EP4 transfectant
# Type: cell-based
# Particulars: HEK293 cells expressing human EP4 receptors, 1 nM PGE2, 0.2 mM IBMX, 37° C. for 10 min
Endpoint: IC50 (nM)

// below: answered compounds
Ask: For C[C@H](NC(=O)c1cc(Cl)ccc1CN(C)c1ccc(Cl)cn1)c1ccc(C(=O)O)cc1 [EXAMPLE 22] , write its IC50.
Reply: 68

Ask: Complete the entry with IC50 for C[C@H](NC(=O)c1cc(Cl)cnc1COc1ccc(Cl)cc1)c1ccc(C(=O)O)cc1 [EXAMPLE 18]
Reply: 22

(1) C[C@H](NC(=O)c1cc(Cl)ccc1COc1cncc(Cl)c1)c1ccc(C(=O)O)cc1 [EXAMPLE 15]
(2) C[C@H](NC(=O)c1cc(Cl)ccc1COc1cccc(F)c1)c1ccc(C(=O)O)cc1 [EXAMPLE 5]
Ask: Looking only at measured IC50, which entry is lower, 1 or 2 ? Mark your answer with the label of the selected entry.
Reply: 2
(2: 23 nM, 1: 160 nM)
